- ASSAY_TARGET: isolated guanyl cyclase (Homo sapiens)
- Sequence (Q02153 1-619): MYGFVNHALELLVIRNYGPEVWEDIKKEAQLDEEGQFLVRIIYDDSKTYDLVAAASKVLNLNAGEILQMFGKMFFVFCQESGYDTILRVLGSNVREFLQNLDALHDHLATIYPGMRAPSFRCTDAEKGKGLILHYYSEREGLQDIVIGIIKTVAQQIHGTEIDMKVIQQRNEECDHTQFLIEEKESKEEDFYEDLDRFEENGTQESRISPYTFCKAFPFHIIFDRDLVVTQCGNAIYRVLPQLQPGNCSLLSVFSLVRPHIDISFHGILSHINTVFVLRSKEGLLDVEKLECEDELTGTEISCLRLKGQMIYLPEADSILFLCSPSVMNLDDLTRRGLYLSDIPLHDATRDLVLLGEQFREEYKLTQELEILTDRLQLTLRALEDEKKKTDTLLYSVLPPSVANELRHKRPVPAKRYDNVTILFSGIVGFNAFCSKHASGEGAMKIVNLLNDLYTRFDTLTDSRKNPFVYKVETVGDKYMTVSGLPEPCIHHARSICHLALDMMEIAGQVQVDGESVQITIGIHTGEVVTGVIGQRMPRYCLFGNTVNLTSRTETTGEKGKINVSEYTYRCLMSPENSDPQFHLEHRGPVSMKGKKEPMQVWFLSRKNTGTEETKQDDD
- Sequence (Q02108 1-690 partner): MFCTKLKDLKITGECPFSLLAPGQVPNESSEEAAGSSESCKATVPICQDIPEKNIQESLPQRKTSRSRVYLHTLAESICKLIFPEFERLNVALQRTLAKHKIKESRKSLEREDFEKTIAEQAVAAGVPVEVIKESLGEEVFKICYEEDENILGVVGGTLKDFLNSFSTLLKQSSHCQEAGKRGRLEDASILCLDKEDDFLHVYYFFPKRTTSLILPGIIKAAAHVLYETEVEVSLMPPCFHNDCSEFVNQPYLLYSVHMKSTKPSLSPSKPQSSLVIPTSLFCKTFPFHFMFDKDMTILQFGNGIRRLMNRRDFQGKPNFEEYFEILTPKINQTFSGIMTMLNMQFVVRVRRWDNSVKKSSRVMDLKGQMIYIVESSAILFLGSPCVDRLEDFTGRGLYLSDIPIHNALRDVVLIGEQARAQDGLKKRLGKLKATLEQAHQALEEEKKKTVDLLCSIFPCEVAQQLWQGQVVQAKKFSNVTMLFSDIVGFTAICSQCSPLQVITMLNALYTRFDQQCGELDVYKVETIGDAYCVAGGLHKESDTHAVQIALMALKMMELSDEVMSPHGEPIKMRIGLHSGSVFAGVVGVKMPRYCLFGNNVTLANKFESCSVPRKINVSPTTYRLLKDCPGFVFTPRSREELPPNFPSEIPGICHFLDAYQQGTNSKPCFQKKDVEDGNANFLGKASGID
- RUN_DESCRIPTION: Activation of isolated guanyl cyclase (cGMP formation)
- Format: biochemical
- RUN_CONDITIONS: isolated enzyme; read-out: concentration necessary for one-half of the maximum activity (ED50) of guanyl cyclase
REPORTED_METRIC: EC50

smiles_data=CCOC(=O)[C@H](CS)NC(=O)C(C)(C)CO[N+](=O)[O-] reported_result="~200 µM"
